molecular target: Hexose transporter 1 (Plasmodium falciparum); test: ST_JUDE_LEISH: Cytotoxicity at 2uM final concentration against transgenic Leishmania Mexicana promastigotes LmPfHT that are glucose transport deficient and complemented with the Plasmodium falciparum hexose transporter. Activity is measured by DNA content using SYBR green in vitro; format: functional
In this section we review reported inhibition values for a set of compounds.
MEASURED METRIC: inhibition

| COMPOUND | VALUE OBSERVED |
| --- | --- |
| COc1ccc2c(NN=Cc3cccc(Cl)c3)ccnc2c1 | 0.23% |
| COc1ccc(-c2cccc(NC(=O)c3cccc(Cl)c3)c2)cc1CN1CCN(C)CC1 | 12% |
| O=C(C=Cc1ccc(Cl)c(Cl)c1)NCCCCCN1CCC(CCCNC(=O)/C=C/c2ccccc2)CC1 | 2.68% |
| COc1ccc(S(=O)(=O)NC2CCN(CCCOc3ccnc4cc(Cl)ccc34)C2)cc1OC (centres undefined) | 3.81% |
| Cc1cc(CN2CCC(C(=O)Nc3ccc(-c4nc5ccccc5[nH]4)cc3)CC2)oc1C | 16% |
| Cc1ccc2nc(N/C(N)=N/C(=O)NC3CCCCC3)nc(C)c2c1 | 4.89% |
| O=C(Nc1ccc(-c2nc3ccccc3[nH]2)cc1)c1cccc(S(=O)(=O)N2CCOCC2)c1 | 5.13% |
| O=C(Nc1cccc(CN2CCCN(CC3CC3)CC2)c1)c1ccc(Cl)c(Cl)c1 | 10.2% |
| c1ccc(CNCCn2c(-c3ccc4c(c3)CCO4)nc3c(N4CCCC4)cccc32)cc1 | 8.74% |
| COc1cc(Cc2cnc(N)nc2N)ccc1OCc1csc(-c2ccc(Cl)cc2)n1 | 11.7% |
| CC[C@H](C)CNC(=O)c1ccnc(-c2ccc(CNCCCc3ccccc3)cc2)c1 | 1.1% |
| CN(C)CCN1CCN(Cc2cccc(-c3csc(-c4nc5ccccc5[nH]4)c3)c2)CC1 | 2.44% |
| CCc1cccc(NC(=O)/C=C/c2ccc3c(c2)CN(C)CC3)c1 | 2.31% |
| Cc1cc(-c2ccc3c(c2)CCN(CCC2CCC(NC(=O)/C=C/c4ccc(F)cc4)CC2)CC3)on1 (centres undefined) | 2.66% |
| CCN1CCC(NCc2ccc(-c3ccc(Cl)cc3)cc2)CC1 | 11% |
| O=C(O)C[C@H](NC(=O)CCCNC(=O)c1cccc(-c2ccc(Cl)c(Cl)c2)c1)C(=O)O | 0.62% |
| C=C[C@]1(C)C[C@@H](OC(=O)NC(=O)CCCS(=O)(=O)c2nnc(C)s2)[C@]2(C)[C@H](C)CC[C@]3(CCC(=O)[C@H]32)[C@@H](C)[C@@H]1O | 11.3% |
| CC(=O)Nc1ccc(OCCCN(Cc2ccccc2OC(F)(F)F)c2ccc(C(F)(F)F)c(C#N)c2)c(Cl)c1 | -1.13% |
| CN(C)c1ccc(C=CC(=O)NC(=O)c2ccccc2O)cc1 | 2.19% |

Data origin: ChEMBL document CHEMBL3433997
